Origin of values: patent US20210024639A1

target: native mouse MET on living mouse cells (mouse, UniProt P16056 25-1379); assay: cell-based or functional assay
The binders listed here are annotated with their cell scattering score, MLP29, 0.012 nM.
Report the value in score 0-4 with no unit label.

[[record]]
binder = "chimeric llama-human IgG1 mAb 74C8 (antibody, V domains shown) VH: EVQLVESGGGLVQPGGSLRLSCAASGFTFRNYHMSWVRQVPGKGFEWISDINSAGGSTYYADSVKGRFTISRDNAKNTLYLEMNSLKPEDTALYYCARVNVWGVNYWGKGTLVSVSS VL: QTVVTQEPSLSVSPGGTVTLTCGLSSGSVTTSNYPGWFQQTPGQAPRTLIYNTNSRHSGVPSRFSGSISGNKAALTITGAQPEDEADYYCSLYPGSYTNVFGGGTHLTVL"
measured_attribute = "cell scattering score, MLP29, 0.012 nM"
data_value = 0


Q: What does the data say about its cell scattering score, MLP29, 0.012 nM? Entry: chimeric llama-human IgG1 mAb 71D4 (antibody, V domains shown) VH: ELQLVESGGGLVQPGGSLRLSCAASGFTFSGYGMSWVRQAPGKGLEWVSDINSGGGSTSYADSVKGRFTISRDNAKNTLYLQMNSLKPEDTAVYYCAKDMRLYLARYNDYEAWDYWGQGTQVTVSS VL: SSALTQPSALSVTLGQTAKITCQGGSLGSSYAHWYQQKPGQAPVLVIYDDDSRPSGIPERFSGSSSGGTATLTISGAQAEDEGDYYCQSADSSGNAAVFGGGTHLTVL
Ans: 0

Q: Further, for chimeric llama-human IgG1 mAb 71G3 (antibody, V domains shown) VH: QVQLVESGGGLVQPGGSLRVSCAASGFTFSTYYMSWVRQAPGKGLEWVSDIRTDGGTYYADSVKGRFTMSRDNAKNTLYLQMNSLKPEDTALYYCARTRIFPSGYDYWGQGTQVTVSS VL: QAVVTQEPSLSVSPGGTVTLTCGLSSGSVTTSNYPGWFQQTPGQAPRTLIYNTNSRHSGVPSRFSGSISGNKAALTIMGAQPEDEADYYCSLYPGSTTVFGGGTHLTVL ?
Ans: 0
